assay: Stability of compound in rat microsomes assessed as half-life; type: ADME, Microsome
result type: half-life (min)
Kindly answer with a numeric value in min, unit omitted.

Measured half-life of CC1=C(C(=O)NCc2nccn2C)C(c2ccccc2Cl)N=C(Nc2nc3ccccc3o2)N1 (stereo not given) : 6.42

Measured half-life of COCCNC(=O)C1CC(=O)C2=C(C1)NC(Nc1nc3ccccc3o1)=NC2c1ccccc1Cl (stereo not given) : 10.2

Measured half-life of CC1=C(S(C)(=O)=O)C(c2ccccc2Cl)N=C(Nc2nc3ccccc3o2)N1 (stereo not given) : 9.37

* * *

test: Stability of compound in rat microsomes assessed as half-life; format: ADME, Microsome
result type: half-life

Measured half-life of CC1=C(C(=O)Nc2cc(C(=O)O)ccn2)C(c2ccc(-c3ccc(C(F)(F)F)cc3)cc2Cl)N=C(Nc2nc3ccc(F)cc3o2)N1 (stereo not drawn) : > 30 min

Measured half-life of CC1=C(C(=O)Nc2ccc(O)cc2)C(c2ccccc2Cl)N=C(Nc2nc3ccccc3o2)N1 (stereo not drawn) : > 30 min

Measured half-life of CC1=C(C(=O)NCc2cncn2C)C(c2ccccc2Cl)N=C(Nc2nc3ccccc3o2)N1 (stereo not drawn) : 8.87 min

Measured half-life of CC1=C(C(=O)Nc2cc(C(=O)O)ccn2)C(c2ccc(N3CCOCC3)cc2Cl)N=C(Nc2nc3ccc(F)cc3o2)N1 (stereo not drawn) : > 30 min

Measured half-life of COc1ccc(C2N=C(Nc3nc4ccc(F)cc4o3)NC(C)=C2C(=O)Nc2cc(C(=O)O)ccn2)c(Cl)c1 (stereo not drawn) : > 30 min

Measured half-life of CC1=C(C(=O)Nc2cc(CO)ccn2)C(c2ccccc2Cl)N=C(Nc2nc3ccc(F)cc3o2)N1 (stereo not drawn) : > 30 min

Measured half-life of CC1=C(C(=O)Nc2ccc(C#N)cn2)C(c2ccccc2Cl)N=C(Nc2nc3ccc(F)cc3o2)N1 (stereo not drawn) : > 30 min

Measured half-life of CC1=C(C(=O)NCc2cnn(C)c2)[C@H](c2ccc(C)cc2Cl)N=C(Nc2nc3cccc(N)c3o2)N1 : 18.9 min
